Origin of values: ChEMBL document CHEMBL3045910

# experiment-description: Toxicity against Carassius auratus under laboratory conditions assessed as mortality at 17 ppm measured after 48 hr
# Format: organism-based
# test-settings: in vivo
Consider the following compounds and their measured mortality at 48 h, 17 ppm readings.

| item-smiles | unit-symbol | mortality at 48 h, 17 ppm |
| --- | --- | --- |
| CC1(C)CC[C@]2(C(=O)O)CC[C@]3(C)C(=CC[C@@H]4[C@@]5(C)CC[C@H](O)[C@@](C)(CO)[C@@H]5CC[C@]43C)[C@@H]2C1 | % | 0 |
| CC1(C)CC[C@]2(C(=O)O)CC[C@]3(C)C(=CC[C@@H]4[C@@]5(C)CC[C@H](O)C(C)(C)[C@@H]5CC[C@]43C)[C@@H]2C1 | % | 0 |

----------
Listing of entries alongside the reported mortality at 96 h, 10 ppm.
# experiment-description: Toxicity against Carassius auratus under laboratory conditions assessed as mortality at 10 ppm measured after 96 hr
# Format: organism-based
# test-settings: in vivo
measure: mortality at 96 h, 10 ppm (%)

| compound | measure | value-observed |
| --- | --- | --- |
| CC1(C)CC[C@]2(C(=O)O)CC[C@]3(C)C(=CC[C@@H]4[C@@]5(C)CC[C@H](O)C(C)(C)[C@@H]5CC[C@]43C)[C@@H]2C1 [OLEANOLIC_ACID] | mortality at 96 h, 10 ppm | 0 |
| CC1(C)CC[C@]2(C(=O)O)CC[C@]3(C)C(=CC[C@@H]4[C@@]5(C)CC[C@H](O)[C@@](C)(CO)[C@@H]5CC[C@]43C)[C@@H]2C1 [HEDERAGENIN] | mortality at 96 h, 10 ppm | 0 |

----------
mortality at 24 h, 33 ppm values by entry
# experiment-description: Toxicity against Oreochromis sp. under laboratory conditions assessed as mortality at 33 ppm measured after 24 hr
# Format: organism-based
# test-settings: in vivo

| item-smiles | mortality at 24 h, 33 ppm, % |
| --- | --- |
| CC1(C)CC[C@]2(C(=O)O)CC[C@]3(C)C(=CC[C@@H]4[C@@]5(C)CC[C@H](O)C(C)(C)[C@@H]5CC[C@]43C)[C@@H]2C1 | 0 |
| CC1(C)CC[C@]2(C(=O)O)CC[C@]3(C)C(=CC[C@@H]4[C@@]5(C)CC[C@H](O)[C@@](C)(CO)[C@@H]5CC[C@]43C)[C@@H]2C1 | 0 |

----------
# experiment-description: Toxicity against Oreochromis sp. under laboratory conditions assessed as mortality at 17 ppm measured after 24 hr
# Assay type: organism-based
# test-settings: in vivo

| item-smiles | mortality at 24 h, 17 ppm [%] |
| --- | --- |
| CC1(C)CC[C@]2(C(=O)O)CC[C@]3(C)C(=CC[C@@H]4[C@@]5(C)CC[C@H](O)C(C)(C)[C@@H]5CC[C@]43C)[C@@H]2C1 | 0 |
| CC1(C)CC[C@]2(C(=O)O)CC[C@]3(C)C(=CC[C@@H]4[C@@]5(C)CC[C@H](O)[C@@](C)(CO)[C@@H]5CC[C@]43C)[C@@H]2C1 | 0 |

----------
Below, each entry is listed alongside its reported mortality at 24 h, 40 ppm.
# experiment-description: Toxicity against Oreochromis sp. under laboratory conditions assessed as mortality at 40 ppm measured after 24 hr
# Format: organism-based
# test-settings: in vivo

| item-smiles | mortality at 24 h, 40 ppm |
| --- | --- |
| CC1(C)CC[C@]2(C(=O)O)CC[C@]3(C)C(=CC[C@@H]4[C@@]5(C)CC[C@H](O)[C@@](C)(CO)[C@@H]5CC[C@]43C)[C@@H]2C1 | 0% |
| CC1(C)CC[C@]2(C(=O)O)CC[C@]3(C)C(=CC[C@@H]4[C@@]5(C)CC[C@H](O)C(C)(C)[C@@H]5CC[C@]43C)[C@@H]2C1 | 0% |
